Items are presented alongside their recorded dH.
Biological target: T1, SLF1 tandem BRCT repeat (SLF1^tBRCT), residues 1-199, wild type (UniProt Q9BQI6 1-199)
T1 construct: SMC5/6 localization factor 1 (SLF1), tandem BRCT repeat at the N-terminus, residues 1-199; coding region optimized for E. coli and synthesized; also called WT; SMC5/6 localization factor 1 tBRCT; source: E. coli BL21 Rosetta (DE3), purified (Ni-NTA, heparin, gel filtration)
T1 sequence (looked up): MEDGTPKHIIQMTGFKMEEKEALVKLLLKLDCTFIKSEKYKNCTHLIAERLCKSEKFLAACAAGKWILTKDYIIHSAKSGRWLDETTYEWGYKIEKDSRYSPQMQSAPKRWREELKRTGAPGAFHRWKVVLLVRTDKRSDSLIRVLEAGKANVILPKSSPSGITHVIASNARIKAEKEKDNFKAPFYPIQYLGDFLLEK
Assay: ITC; MicroCal ITC 200, 25 °C, 20 mM Tris (pH 7.5), 200 mM sodium chloride; 1.3 mM Rad18 peptide or 6 mM BRCTide injected into 0.1 mM (Rad18 peptides) or 0.2 mM (BRCTide) SLF1^tBRCT in the cell; three independent repeats
Details: both partners purified
Square brackets hold non-standard residues; d marks the D form. Ends that are not written are not given here. pS = N[C@@H](COP(=O)(O)O)C(=O)O
Your answer is read as kcal/mol, so omit the unit and give the number.

Here are 3 binders together with their reported answers.
[
  {
    "binder": "GAAYDI[pS]QVFPFAKKK (source: synthetic peptide) [BRCTide, phosphopeptide optimized for binding to the BRCA1 tBRCT]",
    "dH, kcal/mol": -0.75
  },
  {
    "binder": "SDSCNS[pS]S[pS]DIIADLLE (peptide, UniProt Q9NS91 436-452, looked up, Rad18, human, residues 436-452, with R448A; source: synthetic peptide) [Rad18-2P-R448A peptide]",
    "dH, kcal/mol": -2.15
  },
  {
    "binder": "SDSCAS[pS]S[pS]DIIRDLLE (peptide, UniProt Q9NS91 436-452, looked up, Rad18, human, residues 436-452, with N440A; source: synthetic peptide) [Rad18-2P-N440A peptide]",
    "dH, kcal/mol": -2.54
  }
]

Need dH of SDSCNS[pS]S[pS]DIIRALLE (peptide, UniProt Q9NS91 436-452, looked up, Rad18, human, residues 436-452, with D449A; source: synthetic peptide) [Rad18-2P-D449A peptide] , thanks.
-1.11

Need dH of SDSCNS[pS]SSDIIRDAAE (peptide, UniProt Q9NS91 436-452, looked up, Rad18, human, residues 436-452, with L450A/L451A; source: synthetic peptide) [Rad18-pS442-2LA peptide (L450A/L451A)] , thanks.
-2.39
